FYI, the data here is from ChEMBL document CHEMBL3137667.

Assay: Highest frequency of acute liver toxicity observed during clinical trials, expressed as a percentage. [column '% AIGUE' in source]
Details: human
assay_endpoint: Hepatotoxicity (acute) (%)
One number for each entry, in %.

For every item in the list below, what is its measured Hepatotoxicity (acute)?
1. INTERFERON ALFA
2. BEMIPARIN SODIUM
3. GENTAMICIN
4. CHOLESTYRAMINE
5. LENTINAN
6. REVIPARIN SODIUM
7. ENOXAPARIN
8. RITUXIMAB

1. 0
2. 0
3. 0
4. 0
5. 0
6. 0
7. 0
8. 0

// each listed substance needs a value for Hepatotoxicity (acute)
1. CISPLATIN
2. PALIVIZUMAB
3. EPOETIN ALFA
4. POVIDONE
5. MEGLUMINE ANTIMONATE
6. INTERLEUKIN 1BETA
7. GEMTUZUMAB OZOGAMICIN

[7, 0, 0, 0, 0, 0, 38.3]

I am curious: what Hepatotoxicity (acute) value has been reported for DENILEUKIN DIFTITOX ?
10

----------
Test: Highest frequency of moderate liver toxicity observed during clinical trials, expressed as a percentage. [column '% BIOL' in source]
Conditions: human
assay_endpoint: Hepatotoxicity (moderate) (%)
Give bare numbers, in %.

// known answers, use as guide
NYSTATIN    33.3
STIBOGLUCONATE    61.5
DENILEUKIN DIFTITOX    45
INSULIN HUMAN    0
ETANERCEPT    5

Dear colleague, could you please provide Hepatotoxicity (moderate) for the substances listed below?
1. NEDAPLATIN
2. POLOXAMER
3. PEGLOTICASE
4. PEGASPARGASE
5. GONADOTROPIN, SERUM
6. LENTINAN
7. NARTOGRASTIM
8. ANISTREPLASE

[19.2, 7.7, 3.7, 0, 0, 2, 0, 0]

Go through the items and report each one's Hepatotoxicity (moderate).
1. INFLIXIMAB
2. ADALIMUMAB

1: 31.3; 2: 12.1

----------
Settings: human, serum
Consider the cut-off 1. If the recorded Hepatotoxicity (acute) is strictly smaller, the label is Satisfied; if not, the label is Not satisfied.

Example cases with answers are listed next.
Cc1c(C(C)C)c(=O)n(-c2ccccc2)n1C    Not satisfied
COc1ccc(-n2nc(CCC(=O)N(C)O)cc2-c2ccc(Cl)cc2)cc1    Satisfied
CC(C)c1c(C(=O)Nc2ccccc2)c(-c2ccccc2)c(-c2ccc(F)cc2)n1CC[C@@H](O)C[C@@H](O)CC(=O)O    Not satisfied

Please check: Hepatotoxicity (acute) for Cc1cccc(C)c1OCC(=O)N[C@@H](Cc1ccccc1)[C@@H](O)C[C@H](Cc1ccccc1)NC(=O)[C@H](C(C)C)N1CCCNC1=O , strictly under 1 or not?
Not satisfied

# strict comparison: is reported Hepatotoxicity (acute) < 1? input = NS(=O)(=O)Cc1noc2ccccc12 [ZONISAMIDE]
Satisfied

Check if Hepatotoxicity (acute) falls below 1 for Cc1cccc(Nc2ccncc2S(=O)(=O)NC(=O)NC(C)C)c1 [TORSEMIDE] .
Satisfied

----------
Conditions: human
*1 amine or outer side, *2 acyl side, *3 side chain or, on linkers, in order; H or OH if unused. Where a SMILES comes first, the peptide text is derived from it. Bridges are numbered along the chain shown (N, C = ends). Roman numbers before positions name the chains, in order. [ ]: non-standard residue; d: D form. Actinocin(9to1) = Cc1c2oc3c(C)ccc(C(=O)[*:1])c3nc-2c(C(=O)[*:2])c(N)c1=O; NMeV = CN[C@H](C(=O)O)C(C)C; Sar = CNCC(=O)O
assay_endpoint: Hepatotoxicity (severe hepatitis)
Answers are plain numbers.

Worked cases, answers included:
CCOC(Nc1ccc(C(=O)O)cc1)C(=O)c1ccc(-c2ccccc2)cc1 (stereo unspecified) [XENAZOIC ACID]    0
CN1CCN(CCCN2c3ccccc3Sc3ccc(Cl)cc32)CC1 [PROCHLORPERAZINE]    3

For each listed entry, give its Hepatotoxicity (severe hepatitis).
1. CC(C)(N)C(=O)N[C@H](COCc1ccccc1)C(=O)N1CCC2(CC1)CN(S(C)(=O)=O)c1ccccc12 [IBUTAMOREN]
2. CN1CCC[C@@H]1CCO[C@](C)(c1ccccc1)c1ccc(Cl)cc1 [CLEMASTINE]
3. N[C@@H](Cc1ccc(N(CCCl)CCCl)cc1)C(=O)O
4. CC(C)/N=C/Nc1ccc(-c2c[nH]cn2)cc1 [MIFENTIDINE]

1. 0
2. 0
3. 0
4. 0

I would be grateful if you could provide Hepatotoxicity (severe hepatitis) for each of the following entries.
1. CC(/C=N/NC(=N)N)=N\NC(=N)N [MITOGUAZONE]
2. CC1(C)S[C@@H]2[C@H](NC(=O)[C@H](N)c3ccccc3)C(=O)N2[C@H]1C(=O)OCOC(=O)[C@@H]1N2C(=O)C[C@H]2S(=O)(=O)C1(C)C [SULTAMICILLIN]
3. Cc1c2oc3c(C)ccc(C(=O)N[C@@H]4C(=O)N[C@H](C(C)C)C(=O)N5CCC[C@H]5C(=O)N(C)CC(=O)N(C)[C@@H](C(C)C)C(=O)O[C@@H]4C)c3nc-2c(C(=O)N[C@@H]2C(=O)N[C@H](C(C)C)C(=O)N3CCC[C@H]3C(=O)N(C)CC(=O)N(C)[C@@H](C(C)C)C(=O)O[C@@H]2C)c(N)c1=O [DACTINOMYCIN] (I: T[dV]P[Sar][NMeV] / II: T[dV]P[Sar][NMeV]; ester I:1-I:C, II:1-II:C; linker I:N-II:N via Actinocin(9to1))
4. CC(C)NNC(=O)COc1ccc(Cl)cc1 [IPROCLOZIDE]
5. NS(=O)(=O)c1cc(C(=O)O)cc(N2CCCC2)c1Oc1ccccc1 [PIRETANIDE]
6. C[C@H](CCC(=O)O)[C@H]1CC[C@H]2[C@@H]3[C@@H](O)C[C@@H]4C[C@H](O)CC[C@]4(C)[C@H]3CC[C@]12C [URSODIOL]
7. O=C(O)c1cc(/N=N/c2ccc(O)c(C(=O)O)c2)ccc1O [OLSALAZINE]
8. CC(=O)CCC1C(=O)N(c2ccccc2)N(c2ccccc2)C1=O [KEBUZONE]

[0, 0, 6, 2, 0, 0, 0, 0]

Field: Hepatotoxicity (severe hepatitis). Fill in for each record below.
1. CC(Cc1ccccc1)NCc1ccccc1Cl (stereo unspecified) [CLOBENZOREX]
2. CC(C)Cc1ccc(CC(=O)O)cc1 [IBUFENAC]

1: 0; 2: 1

Please go through the list and note Hepatotoxicity (severe hepatitis) for each compound.
1. CC1=C(C/C=C(\C)CCC[C@H](C)CCC[C@H](C)CCCC(C)C)C(=O)c2ccccc2C1=O [PHYTONADIONE]
2. CC(O)(CS(=O)(=O)c1ccc(F)cc1)C(=O)Nc1ccc(C#N)c(C(F)(F)F)c1 (stereo unspecified) [BICALUTAMIDE]

0
1

----------
Settings: human, serum
Please enter Yes where Hepatotoxicity (acute) is greater than or equal to 10, and No where it is lower.

Answer whether Hepatotoxicity (acute) of C#CCN(C)[C@H](C)Cc1ccccc1 is greater than or equal to 10.
No

----------
Conditions: human
Where a SMILES comes first, the peptide text is derived from it. Bridges are numbered along the chain shown (N, C = ends). [ ]: non-standard residue; d: D form. The star is where a group is joined. NMePhe(4-NMe2) = CN[C@@H](Cc1ccc(N(C)C)cc1)C(=O)O; Pip(4-oxo) = O=C1CCN[C@H](C(=O)O)C1; Picolinoyl(3-OH) = O=C(c1ncccc1O)*; Phg = N[C@H](C(=O)O)c1ccccc1; dAbu = CC[C@@H](N)C(=O)O
Answer each item with its documented Hepatotoxicity (severe hepatitis).
One number for each entry.

C[C@H]1c2cccc(O)c2C(=O)C2=C(O)[C@]3(O)C(=O)C(C(N)=O)=C(O)[C@@H](N(C)C)[C@@H]3[C@@H](O)[C@@H]21.O [DOXYCYCLINE]    1
OCCN1CCN(CCCN2c3ccccc3C=Cc3ccccc32)CC1 [OPIPRAMOL]    1
CCCN1C[C@H](CSC)C[C@@H]2c3cccc4[nH]cc(c34)C[C@H]21 [PERGOLIDE]    0
CC[C@H]1OC(=O)[C@H](C)[C@@H](O[C@H]2C[C@@](C)(OC)[C@@H](O)[C@H](C)O2)[C@H](C)[C@@H](O[C@@H]2O[C@H](C)C[C@H](N(C)C)[C@H]2O)[C@](C)(O)C[C@@H](C)CN(C)[C@H](C)[C@@H](O)[C@]1(C)O [AZITHROMYCIN]    0
CN1C(CSCC(F)(F)F)Nc2cc(Cl)c(S(N)(=O)=O)cc2S1(=O)=O (stereo unspecified) [POLYTHIAZIDE]    0
CNC(=O)OCc1cccc(COC(=O)NC)n1 [PYRICARBATE]    3

I would be grateful if you could provide Hepatotoxicity (severe hepatitis) for each of the following entries.
1. CC[C@H]1NC(=O)[C@@H](NC(=O)c2ncccc2O)[C@@H](C)OC(=O)[C@H](c2ccccc2)NC(=O)[C@@H]2CC(=O)CCN2C(=O)[C@H](Cc2ccc(N(C)C)cc2)N(C)C(=O)[C@@H]2CCCN2C1=O [PRISTINAMYCIN 1A] ({Picolinoyl(3-OH)}-T[dAbu]P[NMePhe(4-NMe2)][Pip(4-oxo)][Phg]; ester 1-C)
2. COc1cc2[nH]c(C)c(CCN3CCN(c4ccccc4)CC3)c2cc1OC [OXYPERTINE]
3. O=C(CCBr)N1CCN(C(=O)CCBr)CC1 [PIPOBROMAN]
4. C[C@H](CCc1ccccc1)NC[C@H](O)c1ccc(O)c(C(N)=O)c1 [DILEVALOL]
5. CO[C@H]1/C=C/O[C@@]2(C)Oc3c(C)c(O)c4c(O)c(cc(O)c4c3C2=O)NC(=O)/C(C)=C\C=C\[C@H](C)[C@H](O)[C@@H](C)[C@@H](O)[C@@H](C)[C@H](OC(C)=O)[C@@H]1C [RIFAMYCIN]

[0, 0, 0, 1, 0]
